Source listed as ChEMBL document CHEMBL1201862.

Recorded GI50 by entry
Tested on: UACC-257
Assay: NCI tumour cell line growth inhibition, 48 h
Active and inactive are the calls of the source. No stated cut-off is given here; in the data, active = GI50 up to about 1.1 µM and inactive = higher.

Reference set, count: 5
[
  {
    "molecule": "CSc1c(C#N)c(O)n(-c2ccc(Cl)cc2)c(=O)c1C#N",
    "GI50": "> 100 µM (inactive)"
  },
  {
    "molecule": "NCCCNCCCCN(CCCN)/[N+]([O-])=N\\O",
    "GI50": "> 100 µM (inactive)"
  },
  {
    "molecule": "CC1(C)CCc2c(ccc(C(=O)/C=C/c3ccc(O)cc3)c2O)O1",
    "GI50": "12.5 µM (inactive)"
  },
  {
    "molecule": "CC1(CNCc2ccccc2)CC(CCc2ccccc2)N(C(=O)c2ccc([N+](=O)[O-])cc2)C1Cc1ccc(O)cc1 (stereo unspecified)",
    "GI50": "12.4 µM (inactive)"
  },
  {
    "molecule": "Cc1c2c(c(C)c3c[n+](C)ccc13)Oc1ccccc1O2",
    "GI50": "6.87 µM (inactive)"
  }
]

Task: Quick one: GI50 for "Cc1cc(N(CCC#N)CCC#N)ccc1/C=C\C(=O)Nc1ccccc1" ?
Result: > 100 µM (inactive)

Task: Consider the molecule shown here: "CCOc1cc(/C=N\O)cc(/C=N/O)c1O" What is its recorded GI50?
Result: 47.2 µM (inactive)

Task: For the molecule "O=C(O/N=C1/CCCC/C1=C\c1ccccc1)c1ccccc1" , what GI50 is on record?
Result: > 100 µM (inactive)

Task: GI50 for COc1cc(CC(C)C(C)Cc2ccc(O)c(OC)c2)ccc1O (stereo unspecified) [DIHYDROGUAIARETIC ACID] ?
Result: 15.8 µM (inactive)

Task: For the molecule shown here, "Cc1nc2sccn2c1C(=O)NN" , give the reported GI50.
Result: > 100 µM (inactive)

Task: Field request: GI50 | item: CC(NC(=N)N)C(=O)O (stereo unspecified)
Result: > 100 µM (inactive)

---

System: IGROV-1
Experiment: NCI tumour cell line growth inhibition, 48 h
Calls of active or inactive are those of the source. Cut-off read from the data, not from the text of the source: active = GI50 up to about 1.1 µM and inactive = higher.
Write down one outcome, taken from t = active, f = inactive

Record excerpt, results attached:
[
  {
    "molecule": "CCOC(=O)C1C(c2ccc(Br)cc2)N(Cc2ccccc2)C(c2ccc(Br)cc2)C(C(=O)OC)S1(=O)=O (stereo not drawn)",
    "assignedCategory": "f"
  },
  {
    "molecule": "Cc1c2cc(Cl)ccc2n2c(=O)c3ccccc3[nH]c(=O)c12",
    "assignedCategory": "f"
  },
  {
    "molecule": "CC(=O)OC1C(C)OC(OC2C[C@](O)(C(C)=O)Cc3c(O)c4c(c(O)c32)C(=O)c2ccccc2C4=O)C(F)C1OC(C)=O (stereo partly drawn)",
    "assignedCategory": "t"
  },
  {
    "molecule": "N#CC1(CCCI)CCCC1",
    "assignedCategory": "f"
  }
]

Task: Recorded test call requested for "COc1ccc(-c2cn3c(n2)sc2cc(C)ccc23)cc1"
Result: f

Task: What was the test verdict on O=[N+]([O-])c1ccc(OP(=O)(O)OCC2OC(CP(=O)(O)O)C(O)C2O)cc1 (stereo not drawn) ?
Result: f

Task: // return assay outcome for "O=c1c2c3c(sc2nc(CN2CCNCC2)n1-c1ccccc1)CCCC3"
Result: f

Task: State the result this test recorded for CC(=O)O[C@@]12CO[C@@H]1C[C@@H](O)[C@@]1(C)C(=O)[C@H](O)C3=C(C)[C@@H](OC(=O)[C@H](O)[C@@H](NC(=O)c4ccccc4)c4ccccc4)C[C@@](O)([C@@H](OC(=O)c4ccccc4)C12)C3(C)C (stereo partly drawn) .
Result: t
